- target-or-system: T1, hMEX3B KH2 WT (Homo sapiens, UniProt Q6ZN04 156-230)
- T1 sequence: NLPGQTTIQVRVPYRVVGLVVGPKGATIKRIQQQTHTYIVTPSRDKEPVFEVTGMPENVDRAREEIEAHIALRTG
- protocol-description: ITC; N 1.79; ITC at 298 K, protein injected into RNA, both dialyzed in the same buffer (composition not in the material; purification SEC buffer 2 M NaCl, 20 mM Tris pH 7.5); NMR at 298 K, 0.1 mM protein
- particulars: protein: recombinant; tags: modified pET28a without thrombin site (His tag likely retained)

{"columns": ["binder", "reading-unit", "Kd"],
 "data": [
  ["CUGAGCUGUAAC (ssRNA) [12-nt RNA]", "µM", 21.7]
]}
